Hello, the source for this data is PubChem BioAssay (Tox21), in case you need it.

- Assay Comment: A CellTox Green Cytotoxicity Assay to monitor cytotoxicity in HEK293 cells - 16 hour (AID 1224888); note: % is set by controls: 0 for no effect and ±100 for the full control effect; nearly all actives have a fitted effect of over 35% in size
- Condition Parameters: CellTox Green fluorescence; series mostly up to 76.8 µM
Results filed as inconclusive are left out. Active and inactive are the calls of the source. Calls come from the whole dose curve; as a rule, active = well fitted activation curve with a large enough effect in the repeat runs; inconclusive = weak or mixed curves; inactive = flat fitted curve, though single readings scatter.
Output constraint: value belongs to active, inactive

Answer briefly: the call reported for O=[N+]([O-])c1ccc(Cl)c([N+](=O)[O-])c1 in this assay.
inactive

Answer briefly: the call reported for CC1(C)Cc2cccc(O)c2O1 in this assay.
inactive

Answer briefly: the call reported for CC(C)(C#N)N=NC(C)(C)C#N in this assay.
inactive

Answer briefly: the call reported for CC(C)=CC1C(C(=O)OCc2cccc(Oc3ccccc3)c2)C1(C)C (stereo unspecified) in this assay.
inactive

Answer briefly: the call reported for CC1=C(C(=O)Nc2ccccc2)SCCO1 in this assay.
inactive

Answer briefly: the call reported for [Cl-].[Cl-].[Cl-].[Fe+3] in this assay.
inactive

Answer briefly: the call reported for CC1CC(=O)O1 (stereo unspecified) in this assay.
inactive

###

- Assay Comment: A CellTox Green Cytotoxicity Assay to monitor cytotoxicity in HepG2 cells - 16 hour (AID 1224876); note: nearly all actives have a fitted effect of over 45% in size
- Condition Parameters: CellTox Green fluorescence; series mostly up to 76.8 µM
- From the text: National Center for Advancing Translational Sciences [NCATS] NIH Chemical Genomics Center [NCGC] U.S. Environmental Protection Agency [EPA] National Institutes of Environmental Health Sciences [NIEHS] National Toxicology Program [NTP] Cell-based models are critical for drug discovery. […] Viable cells produce no appreciable increases in fluorescence. Therefore, the fluorescence signal produced by the binding interaction with dead cell DNA is proportional to cytotoxicity. […]
Records with an inconclusive call do not appear. Activity calls are given as the source filed them. The call rests on the fitted dose curve; in most records, active means well fitted activation curve with a large enough effect in the repeat runs; inconclusive means weak or mixed curves; inactive means flat fitted curve, though single readings scatter.
Output constraint: value belongs to Yes (active), No (inactive)

Answer briefly: the call reported for COP(=S)(OC)SCn1nnc2ccccc2c1=O in this assay.
No

Answer briefly: the call reported for C=CC(=O)OCC(CC)(COC(=O)C=C)COC(=O)C=C in this assay.
No

Answer briefly: the call reported for CC(C)(c1ccc(OCC2CO2)cc1)c1ccc(OCC2CO2)cc1 (configuration not stated) in this assay.
No

Continuing:
Answer briefly: the call reported for CCOP(=O)(OCC)OCC in this assay.
No

Answer briefly: the call reported for CC(C)(c1ccccc1)c1ccc(O)cc1 in this assay.
Yes

Answer briefly: the call reported for CNC(=S)S in this assay.
No

Answer briefly: the call reported for CC1(C)Cc2cccc(O)c2O1 in this assay.
No

Answer briefly: the call reported for CNC(=O)Oc1cccc2c1OC(C)(C)C2 in this assay.
No

Answer briefly: the call reported for C=CC(Cl)CCl (configuration not stated) in this assay.
No

Answer briefly: the call reported for Clc1cccc(Cl)c1 in this assay.
No

Answer briefly: the call reported for CC(C)(O)C(=O)Nc1ccc([N+](=O)[O-])c(C(F)(F)F)c1 in this assay.
No

Answer briefly: the call reported for C[N+](C)(C)CC(=O)[O-] in this assay.
No

###

- Assayed Target: Nuclear receptor subfamily 1 group I member 3 (Homo sapiens)
- Assay Comment: qHTS assay to identify small molecule agonists of the constitutive androstane receptor (CAR) signaling pathway (AID 1224839);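 note: HepG2 cells stably carrying human CAR and a CYP2B6 luciferase reporter; % is set by controls: 0 for no effect and ±100 for the full control effect; nearly all actives have a fitted effect of over 15% in size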
- Condition Parameters: HepG2 hCAR CYP2B6-luciferase, agonist mode, 24 h; series mostly up to 92.4 µM
Records with an inconclusive call do not appear. Active and inactive are the calls of the source. The call rests on the fitted dose curve; in most records, active means well fitted activation curve with a large enough effect in the repeat runs; inconclusive means weak or mixed curves; inactive means no such curve, though single readings can be large or run the other way.
Output constraint: value belongs to T = active, F = inactive

Answered examples (10):
Answer briefly: the call reported for CCC/C=N/O in this assay.
F

Answer briefly: the call reported for Cc1ccc([N+](=O)[O-])cc1 in this assay.
F

Answer briefly: the call reported for O=C(O)c1nn(Cc2ccc(Cl)cc2Cl)c2ccccc12 in this assay.
F

Answer briefly: the call reported for C=CC(=O)OCC(CC)(COC(=O)C=C)COC(=O)C=C in this assay.
F

Answer briefly: the call reported for CNC(=O)Oc1cccc2c1OC(C)(C)C2 in this assay.
F

Answer briefly: the call reported for OC(c1ccc(Cl)cc1)(c1cncnc1)c1ccccc1Cl (stereo unspecified) in this assay.
F

Answer briefly: the call reported for C[C@]12CC[C@H]3[C@@H](CCC4=CC(=O)CC[C@@H]43)[C@@H]1CC[C@@H]2O in this assay.
F

Answer briefly: the call reported for Cc1ccc(N=CN(C)C=Nc2ccc(C)cc2C)c(C)c1 in this assay.
F

Answer briefly: the call reported for CCC[CH2][Sn]([Cl])([CH2]CCC)[CH2]CCC in this assay.
F

Answer briefly: the call reported for CCCCCCCC[N+](C)(CCCCCCCC)CCCCCCCC in this assay.
F

Continuing:
Answer briefly: the call reported for CCOP(=S)(OCC)OP(=S)(OCC)OCC in this assay.
F

Answer briefly: the call reported for Brc1ccc(Br)cc1 in this assay.
F

Answer briefly: the call reported for COP(=S)(OC)Oc1ccc(S(=O)(=O)N(C)C)cc1 in this assay.
F

###

- Assay Comment: A CellTox Green Cytotoxicity Assay to monitor cytotoxicity in HEK293 cells - 8 hour (AID 1224884); note: nearly all actives have a fitted effect of over 35% in size
- Condition Parameters: CellTox Green fluorescence; series mostly up to 76.8 µM
- Description: National Center for Advancing Translational Sciences [NCATS] NIH Chemical Genomics Center [NCGC] U.S. Environmental Protection Agency [EPA] National Institutes of Environmental Health Sciences [NIEHS] National Toxicology Program [NTP] Cell-based models are critical for drug discovery. […] Viable cells produce no appreciable increases in fluorescence. Therefore, the fluorescence signal produced by the binding interaction with dead cell DNA is proportional to cytotoxicity. […]
Results filed as inconclusive are left out. The source made the active and inactive calls. Calls follow the shape of the dose curve; as a rule, active = well fitted activation curve with a large enough effect in the repeat runs; inconclusive = weak or mixed curves; inactive = flat fitted curve, though single readings scatter.
Output constraint: value belongs to 1 for active, -1 for inactive

Answered examples (3):
Answer briefly: the call reported for CC1=C(C(=O)Nc2ccccc2)SCCO1 in this assay.
-1

Answer briefly: the call reported for N#Cc1c(Cl)c(Cl)c(Cl)c(C#N)c1Cl in this assay.
1

Answer briefly: the call reported for ClC(Cl)(Cl)c1ccccc1 in this assay.
-1

Continuing:
Answer briefly: the call reported for CC(C)(c1ccccc1)c1ccc(O)c(C(C)(C)c2ccccc2)c1 in this assay.
-1

Answer briefly: the call reported for CC1(C)C(C(=O)OC(C#N)c2cccc(Oc3ccccc3)c2)C1(C)C (configuration not stated) in this assay.
-1

Answer briefly: the call reported for CC(O)CN(CC(C)O)CC(C)O (configuration not stated) in this assay.
-1

Answer briefly: the call reported for N#CCCCCC#N in this assay.
-1

###

- Assay Comment: qHTS RealTime-Glo MT Cell Viability Assay in HepG2 cells - 24 hour (AID 1224867); note: % is set by controls: 0 for no effect and ±100 for the full control effect; nearly all actives have a fitted effect of over 50% in size
- Condition Parameters: RealTime-Glo luminescence; series mostly up to 76.8 µM
Results filed as inconclusive are left out. The source made the active and inactive calls. Calls come from the whole dose curve; as a rule, active = well fitted cell-killing curve with a large enough effect in the repeat runs; inconclusive = weak or mixed curves; inactive = flat fitted curve, though single readings scatter.
Measurement Type: outcome

# outcome lookup, item CN(C)c1nc(=O)n(C2CCCCC2)c(=O)n1C
inactive

# outcome lookup, item Brc1ccc(Br)cc1
inactive

# outcome lookup, item N#CCCCCC#N
inactive

###

- Assay Comment: Caspase-3/7 induction in CHO-K1 cells by small molecules, qHTS assay (AID 1346980); note: % is set by controls: 0 for no effect and ±100 for the full control effect; nearly all actives have a fitted effect of over 15% in size
- Condition Parameters: CHO-K1 caspase-3/7 induction, Caspase-Glo luminescence, 17 h; series mostly up to 92.4 µM
The source made the active and inactive calls. Calls come from the whole dose curve; as a rule, active = well fitted activation curve with a large enough effect in the repeat runs; inconclusive = weak or mixed curves; inactive = flat fitted curve, though single readings scatter.
Measurement Type: outcome

Reference set, count: 5
# outcome lookup, item C[C@]12CCC(=O)C=C1CC[C@@H]1[C@@H]2CC[C@@]2(C)[C@H]1CC[C@]2(C)O
inactive

# outcome lookup, item O=[N+]([O-])c1ccc(Cl)c([N+](=O)[O-])c1
inactive

# outcome lookup, item CCN(CC)C(=O)C(C)Oc1cccc2ccccc12 (stereo not drawn)
inactive

# outcome lookup, item N#Cc1cccnc1
inactive

# outcome lookup, item Cl
inactive

Continuing:
# outcome lookup, item CC1(C)C(C(=O)OC(C#N)c2cccc(Oc3ccccc3)c2)C1(C)C (stereo not drawn)
inactive

# outcome lookup, item CN(C)P(=O)(N(C)C)N(C)C
inactive

# outcome lookup, item Nc1ncn[nH]1
inactive

###

- Assayed Target: Androgen receptor (Homo sapiens) (UniProt P10275)
- Sequence (P10275 whole entry, looked up): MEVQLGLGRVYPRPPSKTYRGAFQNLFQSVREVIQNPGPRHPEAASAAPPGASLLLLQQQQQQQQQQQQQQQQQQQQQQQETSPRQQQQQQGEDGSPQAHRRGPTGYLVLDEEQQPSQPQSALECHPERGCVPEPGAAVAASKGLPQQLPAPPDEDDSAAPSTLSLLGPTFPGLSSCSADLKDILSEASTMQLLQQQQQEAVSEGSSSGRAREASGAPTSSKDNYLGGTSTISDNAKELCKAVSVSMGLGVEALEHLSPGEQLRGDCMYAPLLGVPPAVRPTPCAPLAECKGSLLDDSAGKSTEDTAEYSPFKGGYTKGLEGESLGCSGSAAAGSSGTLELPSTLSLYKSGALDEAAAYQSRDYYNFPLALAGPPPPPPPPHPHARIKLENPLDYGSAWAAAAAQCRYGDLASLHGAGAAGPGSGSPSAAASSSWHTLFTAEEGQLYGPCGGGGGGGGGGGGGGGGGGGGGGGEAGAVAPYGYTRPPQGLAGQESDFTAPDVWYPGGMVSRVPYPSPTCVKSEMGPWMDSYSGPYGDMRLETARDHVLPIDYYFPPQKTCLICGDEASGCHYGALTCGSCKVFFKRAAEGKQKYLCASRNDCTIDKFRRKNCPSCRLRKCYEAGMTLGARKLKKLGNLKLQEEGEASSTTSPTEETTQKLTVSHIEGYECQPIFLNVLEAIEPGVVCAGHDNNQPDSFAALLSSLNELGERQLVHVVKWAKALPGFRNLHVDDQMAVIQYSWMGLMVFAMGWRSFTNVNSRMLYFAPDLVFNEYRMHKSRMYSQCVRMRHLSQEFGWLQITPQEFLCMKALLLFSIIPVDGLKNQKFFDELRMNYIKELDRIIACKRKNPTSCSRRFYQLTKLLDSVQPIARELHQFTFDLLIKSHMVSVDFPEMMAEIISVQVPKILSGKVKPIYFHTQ
- Assay Comment: qHTS assay to identify small molecule antagonists of the androgen receptor (AR) signaling pathway (AID 743035)
- Condition Parameters: HEK293 AR-UAS-bla, R1881-stimulated, beta-lactamase FRET, 16 h; series mostly up to 58.5 µM
Records with an inconclusive call do not appear. The source made the active and inactive calls. Calls follow the shape of the dose curve; as a rule, active = well fitted inhibition curve with a large enough effect in the signal ratio in the repeat runs (not every such curve was filed as active); inconclusive = weak or mixed curves, or effect the other way; inactive = no such curve, though single readings can be large or run the other way; the % refers to the signal ratio.
Output constraint: value belongs to active, inactive

Answer briefly: the call reported for COP(=S)(OC)SCn1nnc2ccccc2c1=O in this assay.
inactive

Answer briefly: the call reported for C=CC(=O)OCC(CC)(COC(=O)C=C)COC(=O)C=C in this assay.
active

Answer briefly: the call reported for Oc1ccc(Cl)cc1Cc1ccccc1 in this assay.
active

Answer briefly: the call reported for O=C1CCCO1 in this assay.
inactive

Answer briefly: the call reported for COP(=S)(OC)Oc1ccc(S(=O)(=O)N(C)C)cc1 in this assay.
inactive

Continuing:
Answer briefly: the call reported for CC(C)(c1ccc(OCC2CO2)cc1)c1ccc(OCC2CO2)cc1 (centres undefined) in this assay.
inactive

Answer briefly: the call reported for CCOP(=S)(OCC)OP(=S)(OCC)OCC in this assay.
inactive

Answer briefly: the call reported for O=[N+]([O-])/N=C1\NCCN1Cc1ccc(Cl)nc1 in this assay.
inactive

Answer briefly: the call reported for CCC1(c2ccc(N)cc2)CCC(=O)NC1=O (centres undefined) in this assay.
inactive
